Origin of measurements: patent US4160097A

Exercise: state measured change in vivo at 100 mg/kg for each of the compounds provided.
- System: carrageenan rat paw edema
- method.summary: Rat Paw Edema Assay, Local Administration
- Format: in vivo
- conditions.used: 100 mg/kg, local administration, read-out: % Difference from Control
Please give a number only; it is taken to be in %.

Entry FC(F)(F)c1nc2ccccc2n2ccnc12 , change in vivo at 100 mg/kg reported as -61

Entry CCCCCCC(=O)Nc1ccccc1-n1ccnc1 , change in vivo at 100 mg/kg reported as -22

Entry O=C(O)c1ccccc1-c1nc2ccccc2n2ccnc12 , change in vivo at 100 mg/kg reported as -39

Entry O=C(Nc1ccccc1-n1ccnc1)c1ccc(Cl)cc1 , change in vivo at 100 mg/kg reported as -57

Entry Clc1ccc(-c2nc3ccccc3n3ccnc23)cc1 , change in vivo at 100 mg/kg reported as -78

Entry O=C(Nc1ccccc1-n1ccnc1)c1ccccc1Cl , change in vivo at 100 mg/kg reported as -35

Entry Cc1nc2ccccc2n2ccnc12 , change in vivo at 100 mg/kg reported as -74

----------
Exercise: state measured ED50 for each of the compounds provided.
- Tested on: humeral or antibody response
- method.summary: hemolysin test in mice
- Format: in vivo
- conditions.used: Mus musculus, sc, dose reducing antibody activity by 50% vs control, read-out: HL(ED50)

Entry CCCCCCCc1nc2ccccc2n2ccnc12 [Compound 116] , ED50 reported as > 50 mg/kg

Entry Ic1ccc(-c2nc3ccccc3n3ccnc23)cc1 [Compound 196] , ED50 reported as 0.42 mg/kg

Entry Clc1ccc(-c2nc3ccccc3n3ccnc23)cc1 [Compound 140] , ED50 reported as 0.26 mg/kg

Entry O=[N+]([O-])c1ccc(-c2nc3ccccc3n3ccnc23)cc1 [Compound 151] , ED50 reported as 0.3 mg/kg

Entry Nc1ccc(-c2nc3ccccc3n3ccnc23)cc1 [Compound 153] , ED50 reported as 1.2 mg/kg

Entry CC(C)c1ccc(Nc2nc3ccccc3n3ccnc23)cc1 [Compound 218] , ED50 reported as 1.5 mg/kg

Entry Brc1ccccc1Nc1nc2ccccc2n2ccnc12 [Compound 177] , ED50 reported as 13 mg/kg

Entry Brc1cccc(Nc2nc3ccccc3n3ccnc23)c1 [Compound 178] , ED50 reported as 11 mg/kg

Entry COc1ccc(Oc2ccc(-c3nc4ccccc4n4ccnc34)cc2)cc1 [Compound 220] , ED50 reported as 2.3 mg/kg

Entry N#Cc1ccc(-c2nc3ccccc3n3ccnc23)cc1 [Compound 149] , ED50 reported as 0.16 mg/kg

Entry Brc1ccc(Nc2nc3ccccc3n3ccnc23)cc1 [Compound 183] , ED50 reported as 0.39 mg/kg

Entry c1ccc(Oc2ccc(-c3nc4ccccc4n4ccnc34)cc2)cc1 [Compound 219] , ED50 reported as 2.5 mg/kg

Entry Clc1ccc(Nc2nc3ccccc3n3ccnc23)cc1 [Compound 174] , ED50 reported as 0.61 mg/kg

Entry Oc1ccc(-c2nc3ccccc3n3ccnc23)cc1 [Compound 162] , ED50 reported as 13 mg/kg

Entry Cc1ccccc1Nc1nc2ccccc2n2ccnc12 [Compound 197] , ED50 reported as 1.6 mg/kg

Entry c1ccc2c(c1)ncc1nccn12 [Compound 109, imidazo[1,2-a]quinoxaline, reference compound] , ED50 reported as > 50 mg/kg

Entry Fc1ccc(-c2nc3ccccc3n3ccnc23)cc1 [Compound 147] , ED50 reported as 0.027 mg/kg

Entry Brc1ccc(-c2nc3ccccc3n3ccnc23)cc1 [Compound 146] , ED50 reported as 0.11 mg/kg

Entry COc1ccc(-c2nc3ccccc3n3ccnc23)cc1 [Compound 138] , ED50 reported as 0.72 mg/kg

Entry Cc1cccc(-c2nc3ccccc3n3ccnc23)c1 [Compound 133] , ED50 reported as 0.75 mg/kg

Entry CCC(=O)Nc1ccccc1-n1ccnc1 [Compound 3] , ED50 reported as 50 mg/kg

----------
- Test system: humeral or antibody response
- method.summary: hemolysin test in mice
- Type: in vivo
- conditions.used: Mus musculus, sc, dose reducing antibody activity by 50% vs control, read-out: HL(ED50)
parameter.measured: ED50 (mg/kg)
Please give a number only; it is taken to be in mg/kg.

Entry c1ccc(-c2ccc(-c3nc4ccccc4n4ccnc34)cc2)cc1 [Compound 135] , ED50 reported as 0.033

Entry Fc1ccc(Nc2nc3ccccc3n3ccnc23)cc1 [Compound 182] , ED50 reported as 1.1

Entry O=[N+]([O-])c1cccc(-c2nc3ccccc3n3ccnc23)c1 [Compound 150] , ED50 reported as 22

Entry Clc1ccc(-c2nc3ccccc3n3ccnc23)cc1Cl [Compound 143] , ED50 reported as 0.36

----------
Exercise: state measured ED50 for each of the compounds provided.
- System: humeral or antibody response
- method.summary: hemolysin test in mice
- Format: in vivo
- conditions.used: Mus musculus, sc, dose reducing antibody activity by 50% vs control, read-out: HL(ED50)
Please give a number only; it is taken to be in mg/kg.

Entry CCCNc1nc2ccccc2n2ccnc12 [Compound 169] , ED50 reported as 46

Entry Fc1cccc(Nc2nc3ccccc3n3ccnc23)c1 [Compound 181] , ED50 reported as 16

Entry COc1cccc(-c2nc3ccccc3n3ccnc23)c1 [Compound 159] , ED50 reported as 3

Entry Brc1cccc(-c2nc3ccccc3n3ccnc23)c1 [Compound 157] , ED50 reported as 0.39

Entry Fc1cccc(-c2nc3ccccc3n3ccnc23)c1 [Compound 158] , ED50 reported as 1

Entry Fc1ccccc1Nc1nc2ccccc2n2ccnc12 [Compound 180] , ED50 reported as 5.6

Entry Cc1ccc(Nc2nc3ccccc3n3ccnc23)cc1 [Compound 171] , ED50 reported as 0.96

Entry c1ccc(OCc2nc3ccccc3n3ccnc23)cc1 [Compound 126] , ED50 reported as 35

Entry Clc1ccc(Nc2nc3ccccc3n3ccnc23)cc1Cl [Compound 175] , ED50 reported as 0.09

Entry c1ccc(Nc2nc3ccccc3n3ccnc23)cc1 [Compound 170] , ED50 reported as 6.6

Entry CCCCSc1ccc(-c2nc3ccccc3n3ccnc23)cc1 [Compound 222] , ED50 reported as 1

Entry c1ccc(-c2nc3ccccc3n3ccnc23)cc1 [Compound 131, 4-phenylimidazo[1,2-a]quinoxaline, reference compound] , ED50 reported as 18

Entry FC(F)(F)c1cccc(-c2nc3ccccc3n3ccnc23)c1 [Compound 136] , ED50 reported as 2.7

Entry Cc1ccc(-c2nc3ccccc3n3ccnc23)cc1 [Compound 134] , ED50 reported as 0.5

Entry CCCNC(=O)Nc1ccccc1-n1ccnc1 [Compound 66] , ED50 reported as 46

Entry COc1cc(OC)cc(-c2nc3ccccc3n3ccnc23)c1 [Compound 139] , ED50 reported as 3

Entry Clc1cccc(-c2nc3ccccc3n3ccnc23)c1 [Compound 142] , ED50 reported as 0.2

----------
Exercise: state measured ED50 for each of the compounds provided.
- Tested on: humeral or antibody response
- method.summary: hemolysin test in mice
- Type: in vivo
- conditions.used: Mus musculus, sc, dose reducing antibody activity by 50% vs control, read-out: HL(ED50)

Entry CCCCCCCCCc1nc2ccccc2n2ccnc12 [Compound 118] , ED50 reported as > 50 mg/kg

Entry CC(C)(C)c1ccc(-c2nc3ccccc3n3ccnc23)cc1 [Compound 137] , ED50 reported as < 0.125 mg/kg

Entry CCCCCCCCc1nc2ccccc2n2ccnc12 [Compound 117] , ED50 reported as > 50 mg/kg

Entry C(=Cc1nc2ccccc2n2ccnc12)c1ccccc1 [Compound 127] , ED50 reported as > 50 mg/kg
